Recorded values, source paper PMC5540273.

- Tested on: EPHB3
- Settings: concentration: 1 μM, replicates: in singlicate; n = 1
Consider the following compounds and their measured %Inh readings.
Just so you know, I need the unit written after the number.

// known answers, use as guide
Structure As Smiles | Target Or Test System | %Inh
Cl.NC(=O)c1cccc(Nc2nccc(Nc3ccc(Oc4cccc(Cl)c4)c(Cl)c3)n2)c1 | EPHB3 | 0%
Fc1cc(Cl)ccc1Nc1ccnc2cc(I)ccc12 | EPHB3 | 17%
Cl.Oc1ccc(-c2nc(-c3ccccc3)[nH]c2-c2ccncc2)cc1 | EPHB3 | 25%

Could you now look at the following compound, please?
Asked: Would you kindly share the measured %Inh for `O=C(O)COc1ncnc2cc(-c3ccc4[nH]ncc4c3)sc12` ?
Given back: 0%

###

- System: DRAK2
- Construct: gene STK17B
- Settings: concentration: 1 μM, replicates: in singlicate; n = 1
Measured Endpoint: %Inh

Before answering, review these 3 worked examples.
Molecule | %Inh
Cc1cc(N2Cc3ccccc3C2)nc(Nc2ccc(S(=O)(=O)N3CCOCC3)cc2)n1.Cl | 0%
Fc1cc(Cl)ccc1Nc1ccnc2cc(-c3ccc(CN4CCCCC4)o3)ccc12 | 0%
O=C(Nc1n[nH]c2nc(-c3nccs3)c(Br)cc12)C1CCCC1 | 0%

Asked: Quick one: %Inh for `COc1ccccc1-c1ccc2c(NC(=O)C3CC3)n[nH]c2n1` ?
Given back: 0%

Asked: I would be grateful if you could share the reported %Inh for `Cn1ccc2ncnc(Oc3cccc(C(=O)Nc4ccccc4)c3)c21` .
Given back: 12%

Asked: Would you mind telling me what %Inh value was observed for `O=S(=O)(c1ccc(-c2ccnc3[nH]ccc23)cc1)N1CCCC1` ?
Given back: 0%

Asked: Name the reported %Inh value associated with the molecule Cc1nnc(-c2ccc3occ(-c4ccc(S(C)=O)cc4)c3c2)[nH]1 (centres unmarked)
Given back: 41%

Asked: Entry `Cl.NC(=O)c1cccc(Nc2nccc(Nc3ccc(Oc4cccc(Cl)c4)c(Cl)c3)n2)c1` : reported %Inh = ?
Given back: 0%

Asked: Could you share which %Inh value was measured for `Cl.Oc1ccc(-c2nc(-c3ccccc3)[nH]c2-c2ccncc2)cc1` ?
Given back: 0%

Asked: Quick check: %Inh of `Nc1ncnc2[nH]c(-c3ccccc3)nc12` ?
Given back: 0%

Asked: Fill in the blank: the reported %Inh of COc1cccc(NC(=O)NC2CCN(c3ccnc(Nc4ccc(F)cc4)n3)C2)c1 (centres unmarked) is ____.
Given back: 0%

Asked: Data request, read-out %Inh, for `C[C@@H]1CCCCN1c1cc(-c2ccc3c(N)n[nH]c3c2)nc(N)n1`
Given back: 0%

Asked: Quick one: %Inh of CCCc1ccc(S(=O)(=O)NC2CCN(c3ccnc(Nc4ccc(F)cc4)n3)C2)cc1 (centres unmarked) ?
Given back: 0%

Asked: Consider the molecule shown here: `Cn1ccc2ncnc(Oc3ccc(Nc4nc5ccccc5[nH]4)cc3)c21` What is its recorded %Inh?
Given back: 2%

###

- Tested on: MKNK1
- Settings: concentration: 1 μM, replicates: in singlicate; n = 1
Measured Endpoint: %Inh
Units required after the number.

Example results:
Compound | %Inh
Clc1cc(Cl)cc(Nc2ccnc(Nc3cc(Cl)cc(Cl)c3)n2)c1 | 5%
Cc1c(O)cccc1Nc1ccnc2ccc(C(F)(F)F)cc12.Cl | 0%

As a next step, examine the compound that follows.
Asked: Fill blank: measured %Inh of the compound Cc1nnc(-c2ccc3occ(-c4ccc(S(C)=O)cc4)c3c2)[nH]1 (stereo not drawn) is ____.
Given back: 9%

###

- Test system: JAK1(JH1domain-catalytic)
Measured Endpoint: Kd

Asked: # input compound: `Cc1c(Cn2ccn3c(=O)cc(N4CCOCC4)nc23)cccc1C(F)(F)F` ; wanted: its Kd
Given back: > 10 µM

###

Catalogue of compounds with associated %Inh
- Test system: EPHA6
- Settings: concentration: 1 μM, replicates: in singlicate; n = 1
Provide only the numeric value, understood in %.

Example entries begin here.
Structure As Smiles | %Inh [%]
Cc1ccc(NC(=O)Nc2cccc(Cl)c2)cc1-c1ccc(C(=O)Nc2ccncc2)cc1 | 11
Cl.O=C(Nc1cccc(-c2nn3ncccc3c2-c2ccnc(Nc3cccnc3)n2)c1)c1c(F)cccc1F | 1
O=S(=O)(c1ccc(-c2ccnc3[nH]ccc23)cc1)N1CCCC1 | 0
Cc1ccc(C(=O)Nc2ccc(Nc3ccnc4cc(-c5ccccn5)ccc34)cc2O)cc1.Cl | 0
COc1ccc(Nc2nccc(-c3cccc(NC(=O)c4cc5cc(F)ccc5[nH]4)c3)n2)cc1 | 11

Asked: Report %Inh for `NC(=O)c1nnc2ccccc2c1N` tested on EPHA6.
Given back: 0

###

- System: ERK4
- Construct: gene MAPK4
- Settings: concentration: 1 μM, replicates: in singlicate; n = 1
Recorded %Inh determines the group label, using A (below 4%), B (4% to below 20%), C (20% or more)

Sample answers from the record:
Compound | Target Or Test System | Cat
COc1ccccc1-c1ccc2c(NC(=O)C3CC3)n[nH]c2n1 [SB-711239] | ERK4 | A
Nc1ncnc2[nH]c(-c3ccccc3)nc12 [AH5015] | ERK4 | A
Cc1cccc(-c2nc(C)cc(Nc3ccncc3)n2)n1 [GSK257997] | ERK4 | C
COc1ccc2nc(-c3cccc(C)n3)nc(Nc3ccncc3)c2c1 [GSK204919] | ERK4 | B
O=C(Nc1n[nH]c2cc(-c3cccc(F)c3F)ccc12)C1CC1 [SB-733894] | ERK4 | A
CC1=C(C(=O)Nc2cc3cn[nH]c3cc2F)C(c2ccc(C(F)(F)F)cc2)CC(=O)N1 (centres unmarked) [GSK429286] | ERK4 | B

Asked: Entry Cc1ccc(C(=O)Nc2ccc(Nc3ccnc4cc(-c5ccccn5)ccc34)cc2O)cc1.Cl [GW440146] belongs to which category?
Given back: B

Asked: Sort into band: Cc1csc(-c2nc(Nc3ccncc3)c3ccccc3n2)n1 [GW869640]
Given back: A

Asked: For this compound, which bin applies? Cn1cncc1-c1ccc2ncnc(Nc3ccc(OCc4ccccc4)cc3)c2c1 [GW320571]
Given back: A

###

- Test system: CSF1R
Measured Endpoint: Kd (µM)
I only need the number, in µM, no unit after it.

Asked: Query: Kd; subject: `Cn1ccc2ncnc(Oc3ccc(NC(=O)Nc4ccccc4)cc3)c21`
Given back: 0.082

###

- Test system: TAK1
- Construct: gene MAP3K7
- Settings: concentration: 1 μM, replicates: in singlicate; n = 1
Measured %Inh values are reported for all entries that follow.
Respond numerically; units are % and should not be typed.

Molecule | Target Or Test System | %Inh / %
O=C(Nc1n[nH]c2cc(-c3cccc(F)c3F)ccc12)C1CC1 | TAK1 | 48

Asked: Quick check: %Inh of `CC(=O)Nc1nc2cnc(Nc3cc(NC(=O)c4cccc(CCC#N)c4)ccc3C)nc2s1` ?
Given back: 42

Asked: Using the record for `C[C@@H]1CCCCN1c1cc(-c2ccc3c(N)n[nH]c3c2)nc(N)n1` , report its %Inh.
Given back: 0

Asked: Entry under review: Cc1nnc(-c2ccc3occ(-c4ccc(S(C)=O)cc4)c3c2)[nH]1 (centres unmarked) . Reported %Inh?
Given back: 7

Asked: Requested field: %Inh. Item: `Cc1cccc(-c2nc(C)cc(Nc3ccncc3)n2)n1`
Given back: 24

###

- System: PRKG1
- Settings: concentration: 1 μM, replicates: in singlicate; n = 1
Measured %Inh, listed per entry.
State just the number; it will be interpreted in %.

Compound | Target Or Test System | Obs Value
Cc1cccc(-c2nc(C)cc(Nc3ccncc3)n2)n1 [GSK257997] | PRKG1 | 0

Asked: Using the record for CN(C)CCN(C)C(=O)c1cc(-c2ccncc2)c(-c2ccc(Cl)c(O)c2)o1.Cl.Cl [SB-710397] , report its %Inh.
Given back: 0

###

- Tested on: AKT2
- Settings: concentration: 1 μM, replicates: in singlicate; n = 1
Reported %Inh values follow for various molecules
State the answer as a number, implicitly in %.

Check out these entries, answers already filled in.
Molecule | Uom | Obs Value
Cc1cc(N2Cc3ccccc3C2)nc(Nc2ccc(S(=O)(=O)N3CCOCC3)cc2)n1.Cl [GSK1669917] | % | 0
Cc1ccc(NC(=O)Nc2cc(C(C)(C)C)nn2-c2ccccc2)cc1 [GSK1014915] | % | 14
COc1cc2nccc(Nc3ccc(NC(=O)c4ccc(C)cc4)c(O)c3)c2cc1OC.Cl [GW440132] | % | 1
O=S(=O)(c1ccc(-c2ccnc3[nH]ccc23)cc1)N1CCCC1 [GSK846226] | % | 0
Fc1cc(Cl)ccc1Nc1ccnc2cc(I)ccc12 [GW551191] | % | 18
O=C(Nc1n[nH]c2cc(-c3cccc(F)c3F)ccc12)C1CC1 [SB-733894] | % | 0
Cc1ccc(C(=O)Nc2ccc(Nc3ccnc4cc(-c5ccccn5)ccc34)cc2O)cc1.Cl [GW440146] | % | 19
Cc1c(O)cccc1Nc1ccnc2ccc(C(F)(F)F)cc12.Cl [GW466413] | % | 0
Cc1ccc(-c2cc(-c3c[nH]nc3-c3ccccn3)ccn2)cc1 [GW684088] | % | 0
Cc1ccccc1-n1cnc2c(N)ncnc21 [SKF-97510] | % | 0

Asked: Bench note: what %Inh did CC1=C(C(=O)Nc2cc3cn[nH]c3cc2F)C(c2ccc(C(F)(F)F)cc2)CC(=O)N1 (stereo not shown) [GSK429286] show?
Given back: 20

Asked: Recorded %Inh for `NC(=O)c1nnc2ccccc2c1N` , please?
Given back: 0

Asked: %Inh lookup needed for Nc1nc(-c2nccs2)c(-c2ccnc3ccccc23)s1 [GW693542] , thanks.
Given back: 3

Asked: Recorded %Inh of Cc1cccc(-c2nc(Nc3ccc4[nH]ncc4c3)c3ccccc3n2)n1 [GW857175] , please.
Given back: 55
